Values compiled from the Human Domainome abundance scans (Beltran et al. 2025).

B1: Homeobox protein SIX6, residues 134 to 184; numbered along this chain, O95475 (parent)
chain: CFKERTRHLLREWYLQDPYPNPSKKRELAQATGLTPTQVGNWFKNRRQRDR

# Variants of: B1
# assayMethodText: abundance fitness (aPCA) (normalised: wild type 0, dead -1); higher = more abundant; growth selection in yeast, the domain comes from the species named
# conditionNotes: Homo sapiens
Each record here notes measured abundance fitness.

Completed entries (count: 3):
{"polymerSequence": "CFKERTRHLLREWYLQDPYPNPSKKRELAQATGLTKTQVGNWFKNRRQRDR [P36K]", "measValue": -0.33}
{"polymerSequence": "CFKERTRHLLREWYLQDPYPNPSKKRELAQATGLTNTQVGNWFKNRRQRDR [P36N]", "measValue": -0.542}
{"polymerSequence": "CFKERTRHLLREWYLQDPYPNPSKKRELAQAIGLTPTQVGNWFKNRRQRDR [T32I]", "measValue": -0.606}

QUERY: Given the entry CFKERTRHLLREWYLQDPYPNPSKKRELAQATGLTPTQVGNWFKNRRQRGR [D50G] , report its measured abundance fitness.
RESULT: -0.607

QUERY: Given the entry CFKERTRHLLREWYLQDPYPNPSKKRELPQATGLTPTQVGNWFKNRRQRDR [A29P] , report its measured abundance fitness.
RESULT: -0.916

QUERY: Given the entry CFKERTRHLLREWYLQDPYPNPSHKRELAQATGLTPTQVGNWFKNRRQRDR [K24H] , report its measured abundance fitness.
RESULT: -0.493
